Target: cyclooxygenase-2 (COX-2) (Homo sapiens, UniProt P35354)
Construct: human osteosarcoma 143 cells (which specifically express cyclooxygenase-2); endogenous in cells; host or cells: human osteosarcoma 143 cells (whole cells, and microsomes prepared from them)
Sequence (P35354 18-604): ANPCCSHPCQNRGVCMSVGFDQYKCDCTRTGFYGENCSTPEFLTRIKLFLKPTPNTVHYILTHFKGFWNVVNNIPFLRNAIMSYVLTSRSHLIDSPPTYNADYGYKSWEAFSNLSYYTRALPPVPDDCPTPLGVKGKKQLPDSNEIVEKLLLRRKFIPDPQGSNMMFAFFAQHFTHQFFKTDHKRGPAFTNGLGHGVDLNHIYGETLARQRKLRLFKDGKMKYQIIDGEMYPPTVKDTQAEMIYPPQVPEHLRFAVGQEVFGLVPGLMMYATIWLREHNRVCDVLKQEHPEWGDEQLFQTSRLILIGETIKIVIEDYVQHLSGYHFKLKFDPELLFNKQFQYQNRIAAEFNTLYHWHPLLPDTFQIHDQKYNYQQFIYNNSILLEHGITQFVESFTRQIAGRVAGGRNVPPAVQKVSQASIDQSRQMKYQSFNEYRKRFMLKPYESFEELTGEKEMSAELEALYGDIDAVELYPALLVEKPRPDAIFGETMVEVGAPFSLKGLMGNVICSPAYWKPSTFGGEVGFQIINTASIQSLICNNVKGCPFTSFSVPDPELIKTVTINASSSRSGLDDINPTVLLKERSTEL
Test: Whole cell cyclooxygenase assay, COX-2 (PGE2 synthesis in response to arachidonic acid, radioimmunoassay), human osteosarcoma 143 cells
Format: cell-based
Settings: 80 nM; read-out: Whole Cells COX-2 % inhib.
Response key: 1 means inhibition at 0.08 µM >= 80%; 0 means inhibition at 0.08 µM < 80%.

[[record]]
substance_smiles = "CS(=O)(=O)c1ccc(C2=C(c3ccc(F)cc3F)C(=O)OC2)cc1"
group_label = 0

[[record]]
substance_smiles = "CS(=O)(=O)c1ccc(C2=C(c3ccc4cccnc4c3)C(=O)OC2)cc1"
group_label = 0

[[record]]
substance_smiles = "COc1ccc(C2=C(c3ccc(S(N)(=O)=O)cc3)COC2=O)cc1Br"
group_label = 1

[[record]]
substance_smiles = "CS(=O)(=O)c1ccc(C2=C(c3ccc4ccccc4c3)C(=O)OC2)cc1"
group_label = 1

[[record]]
substance_smiles = "CS(=O)(=O)c1ccc(C2=C(c3ccc(Cl)cc3Br)C(=O)OC2)cc1"
group_label = 0

[[record]]
substance_smiles = "CS(=O)(=O)c1ccc(C2=C(c3ccc(Cl)c(Cl)c3)C(=O)OC2)cc1"
group_label = 1

